Molecular target: human cholecystokinin-2 receptor (CCK-2R) (Homo sapiens)
Construct: host or cells: 1321-N1 cells (plasma membranes prepared by Evotec AG Hamburg)
Test: In vitro potency on CCK-2R, whole cell functional assay (IP1 accumulation, IP-One HTRF)
Format: cell-based
Details: 1321-N1 cells stably expressing CCK-2R; IP1 accumulation; highest dose tested 1×10^6 pM; read-out: EC50 (CCK-2R)
Starred links: 1 amine or outer side, 2 acyl side, 3 side chain; linkers in the order of their positions; H or OH if unused. Non-standard residues stand in square brackets, D forms with d. Residues, ends and D or L forms follow the SMILES beside them. *: point of attachment. Phe(4-CH2SO3H) = N[C@@H](Cc1ccc(CS(=O)(=O)O)cc1)C(=O)O; sY = N[C@@H](Cc1ccc(OS(=O)(=O)O)cc1)C(=O)O; C18 diacid = O=C(O)CCCCCCCCCCCCCCCCC(=O)*; d(βAsp) = O=C(O)[C@@H](CC(=O)[*:2])N[*:1]; γGlu = O=C(O)[C@H](CCC(=O)[*:2])N[*:1]; NMeF = CN[C@@H](Cc1ccccc1)C(=O)O; dNMeD = CN[C@H](CC(=O)O)C(=O)O; Nle = CCCC[C@H](N)C(=O)O; AEEA = NCCOCCOCC(=O)O
REPORTED PROPERTY: EC50

molecule="CCCC[C@H](NC(=O)[C@H](Cc1c[nH]c2ccccc12)NC(=O)CNC(=O)[C@H](C)NC(=O)[C@H](Cc1ccc(OS(=O)(=O)O)cc1)NC(=O)[C@@H](N)CC(=O)O)C(=O)N(C)[C@H](CC(=O)O)C(=O)N(C)[C@@H](Cc1ccccc1)C(N)=O [Example 80] (H-D[sY]AGW[Nle][dNMeD][NMeF]-NH2)" result="> 1 µM"
molecule="CCCC[C@H](NC(=O)[C@H](Cc1c[nH]c2ccccc12)NC(=O)CNC(=O)[C@H](CC(C)C)NC(=O)[C@H](Cc1ccc(OS(=O)(=O)O)cc1)NC(=O)[C@H](CC(=O)O)NC(=O)CC[C@H](NC(=O)COCCOCCNC(=O)COCCOCCNC(=O)CC[C@H](NC(=O)CCCCCCCCCCCCCCCCC(=O)O)C(=O)O)C(=O)O)C(=O)N(C)[C@H](CC(=O)O)C(=O)N(C)[C@@H](Cc1ccccc1)C(N)=O [Example 32]" result="0.046 µM"
molecule="CCCC[C@H](NC(=O)[C@H](Cc1ccc(CS(=O)(=O)O)cc1)NC(=O)C[C@@H](NC(=O)COCCOCCNC(=O)COCCOCCNC(=O)CC[C@H](NC(=O)CCCCCCCCCCCCCCCCC(=O)O)C(=O)O)C(=O)O)C(=O)NCC(=O)N[C@@H](Cc1c[nH]c2ccccc12)C(=O)N[C@@H](CCCC)C(=O)N(C)[C@H](CC(=O)O)C(=O)N(C)[C@@H](Cc1ccccc1)C(N)=O [Example 27] ({C18 diacid-γGlu-AEEA-AEEA-d(βAsp)}-[Phe(4-CH2SO3H)][Nle]GW[Nle][dNMeD][NMeF]-NH2)" result="> 1 µM"

* * *

# EC50 values compiled below
Molecular target: human cholecystokinin-2 receptor (CCK-2R) (Homo sapiens)
Construct: host or cells: 1321-N1 cells (plasma membranes prepared by Evotec AG Hamburg)
Sequence (P32239 1-447): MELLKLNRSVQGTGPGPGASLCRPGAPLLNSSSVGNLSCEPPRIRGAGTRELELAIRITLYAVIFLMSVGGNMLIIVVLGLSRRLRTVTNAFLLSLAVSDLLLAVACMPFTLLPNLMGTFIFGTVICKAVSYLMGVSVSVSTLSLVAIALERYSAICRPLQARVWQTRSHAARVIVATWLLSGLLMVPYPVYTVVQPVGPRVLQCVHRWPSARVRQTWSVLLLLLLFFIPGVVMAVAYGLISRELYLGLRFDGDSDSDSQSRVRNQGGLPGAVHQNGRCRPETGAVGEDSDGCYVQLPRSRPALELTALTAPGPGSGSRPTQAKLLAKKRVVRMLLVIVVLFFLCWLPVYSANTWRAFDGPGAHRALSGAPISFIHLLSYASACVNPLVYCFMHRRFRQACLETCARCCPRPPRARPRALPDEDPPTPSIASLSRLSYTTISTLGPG
Test: In vitro potency on CCK-2R, whole cell functional assay (IP1 accumulation, IP-One HTRF)
Format: cell-based
Settings: 1321-N1 cells stably expressing CCK-2R; IP1 accumulation; highest dose tested 1×10^6 pM; read-out: EC50 (CCK-2R)
Starred links: 1 amine or outer side, 2 acyl side, 3 side chain; linkers in the order of their positions; H or OH if unused. Non-standard residues stand in square brackets, D forms with d. Residues, ends and D or L forms follow the SMILES beside them. *: point of attachment. Phe(4-CH2SO3H) = N[C@@H](Cc1ccc(CS(=O)(=O)O)cc1)C(=O)O; sY = N[C@@H](Cc1ccc(OS(=O)(=O)O)cc1)C(=O)O; C18 diacid = O=C(O)CCCCCCCCCCCCCCCCC(=O)*; γGlu = O=C(O)[C@H](CCC(=O)[*:2])N[*:1]; 1Nal = N[C@@H](Cc1cccc2ccccc12)C(=O)O; βAsp = O=C(O)[C@H](CC(=O)[*:2])N[*:1]; NMeF = CN[C@@H](Cc1ccccc1)C(=O)O; dNMeD = CN[C@H](CC(=O)O)C(=O)O; Nle = CCCC[C@H](N)C(=O)O; AEEA = NCCOCCOCC(=O)O
REPORTED PROPERTY: EC50

compound="CCCC[C@H](NC(=O)[C@H](Cc1ccc(CS(=O)(=O)O)cc1)NC(=O)C[C@H](N)C(=O)O)C(=O)NCC(=O)N[C@@H](Cc1c[nH]c2ccccc12)C(=O)N[C@@H](CCCC)C(=O)N(C)[C@H](CC(=O)O)C(=O)N(C)[C@@H](Cc1ccccc1)C(N)=O [Example 75] (βAsp-[Phe(4-CH2SO3H)][Nle]GW[Nle][dNMeD][NMeF]-NH2)" assayed_system="human cholecystokinin-2 receptor (CCK-2R) (Homo sapiens)" reported_property=EC50 result="> 1000 nM"
compound="CCCC[C@H](NC(=O)[C@H](Cc1c[nH]c2ccccc12)NC(=O)CNC(=O)[C@H](Cc1c[nH]cn1)NC(=O)[C@H](Cc1ccc(OS(=O)(=O)O)cc1)NC(=O)[C@@H](N)CC(=O)O)C(=O)N(C)[C@H](CC(=O)O)C(=O)N(C)[C@@H](Cc1ccccc1)C(N)=O [Example 82] (H-D[sY]HGW[Nle][dNMeD][NMeF]-NH2)" assayed_system="human cholecystokinin-2 receptor (CCK-2R) (Homo sapiens)" reported_property=EC50 result="> 1000 nM"
compound="CCCC[C@H](NC(=O)[C@H](Cc1ccc(OS(=O)(=O)O)cc1)NC(=O)[C@H](CC(=O)O)NC(=O)COCCOCCNC(=O)COCCOCCNC(=O)CC[C@H](NC(=O)CCCCCCCCCCCCCCCCC(=O)O)C(=O)O)C(=O)NCC(=O)N[C@@H](Cc1c[nH]c2ccccc12)C(=O)N[C@@H](CCCC)C(=O)N(C)[C@H](CC(=O)O)C(=O)N[C@@H](Cc1cccc2ccccc12)C(N)=O [Example 2] ({C18 diacid-γGlu-AEEA-AEEA}-D[sY][Nle]GW[Nle][dNMeD][1Nal]-NH2)" assayed_system="human cholecystokinin-2 receptor (CCK-2R) (Homo sapiens)" reported_property=EC50 result="180 nM"

The reported numbers originate from patent US20170008928A1.
